experiment: Peptide solubility by turbidity of peptide suspensions at 550 nm; conditions: Experiment #2; score 1 to 5
No end group written: not given here.
Quantity: Solubility (/5)

>>> numeric_readout("FAEAFKEAVKDYFAAFWDPAAEKLKEAVKDYFAKLWD [2 SB Disruption, FAEAFKEAVKDYFAAFWD P AAEKLKEAVKDYFAKLWD]")
5
>>> numeric_readout("Ac-DWLKAFYDKVAEKLKEAAPDWFKAFYDKVAEKFKEAF-NH2 [Ac-NSP-NH2]")
1
>>> numeric_readout("FAEKFKEAVKPYFAKFWDPAAEKLKEAVKPYFAKLWD [NSPr-3P, FAEKFKEAVKPYFAKFWD P AAEKLKEAVKPYFAKLWD]")
5
>>> numeric_readout("FAEKLKEAVKDYLAKFWDPAAEKLKEAVKDYFAKLWD [Peptide 2F-1F, FAEKLKEAVKDYLAKFWD P AAEKLKEAVKDYFAKLWD]")
5
>>> numeric_readout("FAAKFKEAVKDYFAKFWDPAAEKLAEAVADYFAALWD [3 SB Disruption H2, FAAKFKEAVKDYFAKFWD P AAEKLAEAVADYFAALWD]")
5
>>> numeric_readout("FAEKFKEAVKDYFAKLWDPAAEKLKEAVKDYFAKLWD [Peptide 3F-1F, FAEKFKEAVKDYFAKLWD P AAEKLKEAVKDYFAKLWD]")
5
